TARGET DESC: T1, human GM-CSFRα, full length on cells (human, UniProt P15509 23-400)
T1 sequence: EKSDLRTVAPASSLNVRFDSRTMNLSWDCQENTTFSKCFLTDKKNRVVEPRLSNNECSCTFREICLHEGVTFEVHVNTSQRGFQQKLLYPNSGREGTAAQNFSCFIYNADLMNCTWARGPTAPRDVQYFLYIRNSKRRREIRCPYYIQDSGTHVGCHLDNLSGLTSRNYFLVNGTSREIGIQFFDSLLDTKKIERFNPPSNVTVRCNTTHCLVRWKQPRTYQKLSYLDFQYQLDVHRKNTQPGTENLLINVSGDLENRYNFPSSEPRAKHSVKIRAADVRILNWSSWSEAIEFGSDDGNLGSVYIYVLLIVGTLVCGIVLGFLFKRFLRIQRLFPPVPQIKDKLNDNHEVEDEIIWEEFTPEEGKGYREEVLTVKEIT
METHOD SUMMARY: cell-based or functional assay
ASSAY READOUT: IC50, TF-1 cell proliferation (µg/mL)

INSERT INTO results (binder, assay_readout, reported_value) VALUES
  ('E35-scFv LQ27A (scFv, V domains shown) VH: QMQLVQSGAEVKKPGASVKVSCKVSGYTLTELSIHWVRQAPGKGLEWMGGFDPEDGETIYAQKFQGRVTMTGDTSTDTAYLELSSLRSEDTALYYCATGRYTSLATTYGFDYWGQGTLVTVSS VL: EIVMTQSPATLSLSPGERATLSCRASASVSSYLAWYQQKPGQAPRLLIYGASSRATGIPDRFSGSGSGTDFTLTISRLEPEDFAVYYCQQYDNWPYTFGQGTKLEIK', 'IC50, TF-1 cell proliferation', 0.104),
  ('E35-scFv LS30V (scFv, V domains shown) VH: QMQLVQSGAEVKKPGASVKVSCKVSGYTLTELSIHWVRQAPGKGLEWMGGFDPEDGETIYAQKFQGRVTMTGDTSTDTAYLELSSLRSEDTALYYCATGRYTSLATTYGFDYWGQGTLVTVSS VL: EIVMTQSPATLSLSPGERATLSCRASQSVVSYLAWYQQKPGQAPRLLIYGASSRATGIPDRFSGSGSGTDFTLTISRLEPEDFAVYYCQQYDNWPYTFGQGTKLEIK', 'IC50, TF-1 cell proliferation', 0.124),
  ('E35-scFv LS31G (scFv, V domains shown) VH: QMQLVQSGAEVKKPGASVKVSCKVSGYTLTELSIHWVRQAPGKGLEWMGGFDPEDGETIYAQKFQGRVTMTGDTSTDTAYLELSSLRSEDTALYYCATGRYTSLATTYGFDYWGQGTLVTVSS VL: EIVMTQSPATLSLSPGERATLSCRASQSVSGYLAWYQQKPGQAPRLLIYGASSRATGIPDRFSGSGSGTDFTLTISRLEPEDFAVYYCQQYDNWPYTFGQGTKLEIK', 'IC50, TF-1 cell proliferation', 0.279),
  ('E35-scFv LS28Q (scFv, V domains shown) VH: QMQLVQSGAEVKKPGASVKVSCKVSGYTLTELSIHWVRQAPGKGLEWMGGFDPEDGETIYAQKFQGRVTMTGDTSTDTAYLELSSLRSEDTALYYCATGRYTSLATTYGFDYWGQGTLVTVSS VL: EIVMTQSPATLSLSPGERATLSCRASQQVSSYLAWYQQKPGQAPRLLIYGASSRATGIPDRFSGSGSGTDFTLTISRLEPEDFAVYYCQQYDNWPYTFGQGTKLEIK', 'IC50, TF-1 cell proliferation', 0.154),
  ('E35-scFv LG50Y (scFv, V domains shown) VH: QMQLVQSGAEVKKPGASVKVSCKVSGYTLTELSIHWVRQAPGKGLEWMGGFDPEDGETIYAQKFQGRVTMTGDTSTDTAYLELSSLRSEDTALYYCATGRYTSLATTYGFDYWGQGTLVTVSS VL: EIVMTQSPATLSLSPGERATLSCRASQSVSSYLAWYQQKPGQAPRLLIYYASSRATGIPDRFSGSGSGTDFTLTISRLEPEDFAVYYCQQYDNWPYTFGQGTKLEIK', 'IC50, TF-1 cell proliferation', 32);

The values you see were collected from patent US20230002496A1.
